Recorded values, source ChEMBL document CHEMBL3994591.

- SYSTEM NAME: Acetylcholinesterase (Homo sapiens, UniProt P22303)
- Sequence (P22303 whole entry): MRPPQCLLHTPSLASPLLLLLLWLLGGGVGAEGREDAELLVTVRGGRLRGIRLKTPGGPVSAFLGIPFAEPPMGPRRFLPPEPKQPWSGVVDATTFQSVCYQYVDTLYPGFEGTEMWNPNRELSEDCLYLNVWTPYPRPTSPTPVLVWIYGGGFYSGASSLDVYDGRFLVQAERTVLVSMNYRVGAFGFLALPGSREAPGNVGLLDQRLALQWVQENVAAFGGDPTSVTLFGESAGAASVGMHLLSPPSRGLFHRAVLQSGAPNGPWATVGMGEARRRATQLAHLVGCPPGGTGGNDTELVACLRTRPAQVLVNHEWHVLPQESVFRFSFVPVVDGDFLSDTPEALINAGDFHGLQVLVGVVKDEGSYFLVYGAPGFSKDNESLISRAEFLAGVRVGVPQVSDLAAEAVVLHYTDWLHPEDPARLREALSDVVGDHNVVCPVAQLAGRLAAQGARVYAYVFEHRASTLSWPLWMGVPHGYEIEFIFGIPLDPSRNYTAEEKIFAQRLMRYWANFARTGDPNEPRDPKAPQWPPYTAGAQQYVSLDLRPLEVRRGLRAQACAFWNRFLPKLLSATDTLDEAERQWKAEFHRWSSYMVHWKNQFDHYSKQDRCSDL
pIC50: −log10 of the molar value.
Classify by measured pIC50: yes (1) if it is equal to or exceeds 5, no (0) if it is smaller.

In plain terms: is recorded pIC50 at least 5 for COc1cc(/C=C/C(=O)Nc2ccccc2)ccc1OCCCCCCCCN1CCCC1 ?
yes (1)

In plain terms: is recorded pIC50 at least 5 for CCN(CC)CCCCCOc1ccc(/C=C/C(=O)Nc2ccccc2)cc1OC ?
no (0)

In plain terms: is recorded pIC50 at least 5 for COc1cc(/C=C/C(=O)Nc2ccccc2)ccc1OCCCCCN(C)C ?
no (0)

In plain terms: is recorded pIC50 at least 5 for COc1cc(/C=C/C(=O)Nc2ccccc2)ccc1OCCCN1CCCCC1 ?
no (0)

In plain terms: is recorded pIC50 at least 5 for CCOC(=O)/C=C/c1ccc(OCCCCCCN(CC)CC)c(OC)c1 ?
yes (1)
